These measurements were taken from PubChem BioAssay AID449762.

experiment: M. tuberculosis growth inhibition, HTS (AID 449762);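 also: bacterial growth assessed after seven days of incubation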; conditions: M. tuberculosis H37Rv growth inhibition, 7H9 media; at 25 µM; active compounds read high
Out of some 330,000 compounds screened, about 1,900 (0.58%) were called active. About 4% were inconclusive and are not listed. These entries were drawn from the full list. Entries with a potency or affinity are not part of this list.
# inhibition annotations
Return type: number; implicit unit %.

Some solved entries appear below for comparison.
O=C(COc1ccc(Br)cc1)c1ccc2c(c1)CCCC2 : 2.77
c1ccc2c(c1)ncn2-c1ccc(-c2ccnc(-c3ccncc3)n2)cc1 : -0.53
O=C(O)c1ccc(Cl)c(S(=O)(=O)N(Cc2ccccc2)c2ccccc2)c1 : -3.72
CCN1C(=O)[C@@H]2[C@@H](c3ccc(-c4ccc(C(C)=O)cc4)c(OC)c3)N3CCC[C@@]3(C(=O)OC)[C@@H]2C1=O : 18.4
OC1(c2ccc(F)cc2)CCN(Cc2nnnn2Cc2cccs2)CC1 : 5.23

Query: Fill blank: measured inhibition of the compound Cn1c(SCc2ccccc2)nc2ccsc2c1=O is ____.
Result: 33.7

Query: Name the reported inhibition value associated with the compound COC(=O)CSc1nc(SCc2ccccc2Cl)nc2c1CCCC2
Result: -6.09

Query: Looking for the measured inhibition of CCNc1nc2c(c(=O)[nH]c(=O)n2C)n1CC(C)C , can you help?
Result: -9.92
